experiment: Steady state fluorescence spectra and quantum yield; type: physicochemical; conditions: in complex with biliverdin
Quick list: Quantum yield per entry.

[[record]]
molecule = "SFP-L135E: monomeric SFP variant L135E, SEQ ID NO:3 (protein) FIKPGRCPKPAVQEDFDAARYLGVWYDIQRLPNKFQKGECATATYSLSPGVGFSVFNRERLANGTIKSVIGSAIAEDPCEPAKLQFFHENAAPVPYWVLSTDYDNYALVYSCINEGASHAAYASIVSRQPTLPEETIKKLQGTMSSFGVGVDTLLTTNQDAAYCSAMNQ"
experimentalvalue = 0.025

[[record]]
molecule = "SFP-V71E: monomeric SFP variant V71E, SEQ ID NO:2 (protein) FIKPGRCPKPAVQEDFDAARYLGVWYDIQRLPNKFQKGECATATYSLSPGEGFSVFNRERLANGTIKSVIGSAIAEDPCEPAKLQFFHENAAPVPYWVLSTDYDNYALVYSCINLGASHAAYASIVSRQPTLPEETIKKLQGTMSSFGVGVDTLLTTNQDAAYCSAMNQ"
experimentalvalue = 0.003


Please indicate Quantum yield recorded for SFP-A137E: monomeric SFP variant A137E, SEQ ID NO:4 (protein) FIKPGRCPKPAVQEDFDAARYLGVWYDIQRLPNKFQKGECATATYSLSPGVGFSVFNRERLANGTIKSVIGSAIAEDPCEPAKLQFFHENAAPVPYWVLSTDYDNYALVYSCINLGESHAAYASIVSRQPTLPEETIKKLQGTMSSFGVGVDTLLTTNQDAAYCSAMNQ
0.003

Please indicate Quantum yield recorded for Wild-type SFP: Sandercyanin fluorescent protein from walleye Sander vitreus mucus, biliverdin-binding lipocalin tetramer; SEQ ID NO:1 (recombinant SEQ ID NO:31) (protein, listed as Sander vitreus, biliverdin chromophore) MNAIQVISLTLLSVLAAKAMFIKPGRCPKPAVQEDFDAARYLGVWYDIQRLPNKFQKGECATATYSLSPGVGFSVFNRERLANGTIKSVIGSAIAEDPCEPAKLQFFHENAAPVPYWVLSTDYDNYALVYSCINLGASHAAYASIVSRQPTLPEETIKKLQGTMSSFGVGVDTLLTTNQDAAYCSAMAQ
0.016
